# Assay System: human aromatase (CYP19) (Homo sapiens)
# Construct: purchased Gentest P260; host or cells: baculovirus-infected insect cells (microsomes)
# Procedure Summary: Inhibition of CYP19-catalyzed dealkylation of DBF (fluorescence, 96 well plates)
# Assay type: biochemical
Readout Type: IC50

get_value(item= C[C@]12CCC(=O)C(O)=C1CC[C@@H]1[C@@H]2CC[C@]2(C)C(=O)CC[C@@H]12 [4-Hydroxandrostendione, 4-hydroxyandrostenedione, reference compound] , readout=IC50) returns 11 nM

---

# Assay System: human aromatase (CYP19) (Homo sapiens)
# Construct: purchased Gentest P260; host or cells: baculovirus-infected insect cells (microsomes)
# Sequence (P11511 1-503): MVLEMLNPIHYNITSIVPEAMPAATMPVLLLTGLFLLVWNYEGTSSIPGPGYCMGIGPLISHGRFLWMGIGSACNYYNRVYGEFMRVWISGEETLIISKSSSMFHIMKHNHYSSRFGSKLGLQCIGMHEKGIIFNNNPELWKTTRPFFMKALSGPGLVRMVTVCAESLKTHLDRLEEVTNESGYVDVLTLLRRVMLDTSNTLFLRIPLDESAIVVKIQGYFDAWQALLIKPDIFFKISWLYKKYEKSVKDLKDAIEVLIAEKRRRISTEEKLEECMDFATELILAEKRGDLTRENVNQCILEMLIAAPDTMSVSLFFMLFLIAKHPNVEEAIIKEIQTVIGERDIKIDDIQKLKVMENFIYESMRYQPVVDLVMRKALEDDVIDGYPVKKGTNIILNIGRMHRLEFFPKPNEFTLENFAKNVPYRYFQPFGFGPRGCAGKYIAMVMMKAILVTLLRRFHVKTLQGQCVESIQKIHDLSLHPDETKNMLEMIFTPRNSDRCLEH
# Procedure Summary: Inhibition of CYP19-catalyzed dealkylation of DBF (fluorescence, 96 well plates)
# Assay type: biochemical
# Conditions: positive and negative control; DBF 0.2 μM; 30 min; duplicate determinations; read-out: IC50 CYP19/DBF (controls)
pIC50: −log10 of the molar value.
Readout Type: pIC50

The measured pIC50 associated with Nc1ccc(S(=O)(=O)Nc2ccnn2-c2ccccc2)cc1 [Sulfaphenazole, reference compound] reads < 5.00
